tested on: NCI-H460 lung; assay: NCI tumour cell line growth inhibition, 48 h

{"Compound": "Cc1nc2ccccc2c(=O)n1/N=C(\\N=Nc1cc(Cl)ccc1Cl)c1ccc(N(C)C)cc1", "TGI": "> 100 µM"}
{"Compound": "CCOC(=O)C(=O)CC(=O)C(Br)C(Br)c1ccc(Cl)cc1 (stereo unspecified)", "TGI": "> 100 µM"}
{"Compound": "O=C1c2ccccc2-c2cn(Cc3ccccc3)c3cccc(c23)C1c1cccnc1 (stereo unspecified)", "TGI": "> 50 µM"}
{"Compound": "CC1=C(\\C=C/C(C)=C/C=C/C(C)=C/C=C/C=C(C)\\C=C\\C=C(C)/C=C/C2=C(C)CCCC2(C)C)C(C)(C)CCC1", "TGI": "> 100 µM"}
{"Compound": "COc1ccc(/C=N/n2c(-c3ccccc3)n[nH]c2=O)c(OC)c1", "TGI": "> 100 µM"}
{"Compound": "COc1cc([C@H]2OC[C@@H]3C(c4cc(OC)c5c(c4)OCO5)OC[C@H]23)cc(OC)c1OC (stereo partly specified)", "TGI": "> 100 µM"}
{"Compound": "NC1(C(=O)O)CCC(C(=O)O)CC1 (stereo unspecified)", "TGI": "> 100 µM"}
{"Compound": "COc1ccc2nc(-c3ccc(N)cc3)sc2c1", "TGI": "> 100 µM"}
{"Compound": "CC(=O)OC1CCC2(C)C(CCC3C2CCC2(C)C(c4ccc(=O)oc4)C(OC(C)=O)CC32O)C1 (stereo unspecified)", "TGI": "0.0197 µM"}
{"Compound": "O=C1N[C@@H]([C@H]2CC[C@H](Cl)CN2)C(=O)N[C@H]1[C@H]1CC[C@H](Cl)CN1", "TGI": "2.88 µM"}
{"Compound": "CN(C)NC(=O)NC12CC3CC(CC(C3)C1)C2", "TGI": "> 100 µM"}
{"Compound": "O=C(Cn1c(=O)oc2ccccc21)N(c1ccccc1)c1ccccc1", "TGI": "> 100 µM"}
{"Compound": "C1CCC(CC2CCC(NC3=NCCO3)CC2)CC1 (stereo unspecified)", "TGI": "37.1 µM"}
{"Compound": "CCc1nnc2sc(-c3ccc(-c4ccccc4[N+](=O)[O-])o3)nn12", "TGI": "> 100 µM"}
{"Compound": "CC1=Nc2ccccc2S/C1=C1/C=NC(=NC#N)N=C1C(=O)Nc1cccc(Cl)c1", "TGI": "> 100 µM"}
{"Compound": "CN1CCN(Cc2ccc(NC(=O)c3cncc(C#Cc4c(N)ncc5ccccc45)c3)cc2C(F)(F)F)CC1", "TGI": "1.04 µM"}
{"Compound": "Cc1cc2nc3c(N)nn(CCCN(C)C)c3nc2cc1C", "TGI": "> 100 µM"}
{"Compound": "CC(=O)CC(O)(C(F)(F)Cl)C(F)(Cl)Cl (stereo unspecified)", "TGI": "> 10 µM"}
{"Compound": "Cc1ccc(C)c(N2CCN(c3ccncc3N)CC2)c1", "TGI": "31.9 µM"}
{"Compound": "CCCNC(=O)c1cc(OC)c(OC)cc1NC(=O)C12CC3CC(CC(C3)C1)C2", "TGI": "43.1 µM"}
{"Compound": "O=C(NOCCO)c1ccc2cncn2c1Nc1ccc(I)cc1F", "TGI": "> 100 µM"}
